TESTED_ON: T1, Biotinylated human BSSL (human, UniProt P19835 21-753, Biotinylated on glycosacarides, 30-40 biotin/BSSL)
T1 construct: hBSSL biotinylated in house; also called b-hBSSL; human BSSL-biotin
T1 sequence: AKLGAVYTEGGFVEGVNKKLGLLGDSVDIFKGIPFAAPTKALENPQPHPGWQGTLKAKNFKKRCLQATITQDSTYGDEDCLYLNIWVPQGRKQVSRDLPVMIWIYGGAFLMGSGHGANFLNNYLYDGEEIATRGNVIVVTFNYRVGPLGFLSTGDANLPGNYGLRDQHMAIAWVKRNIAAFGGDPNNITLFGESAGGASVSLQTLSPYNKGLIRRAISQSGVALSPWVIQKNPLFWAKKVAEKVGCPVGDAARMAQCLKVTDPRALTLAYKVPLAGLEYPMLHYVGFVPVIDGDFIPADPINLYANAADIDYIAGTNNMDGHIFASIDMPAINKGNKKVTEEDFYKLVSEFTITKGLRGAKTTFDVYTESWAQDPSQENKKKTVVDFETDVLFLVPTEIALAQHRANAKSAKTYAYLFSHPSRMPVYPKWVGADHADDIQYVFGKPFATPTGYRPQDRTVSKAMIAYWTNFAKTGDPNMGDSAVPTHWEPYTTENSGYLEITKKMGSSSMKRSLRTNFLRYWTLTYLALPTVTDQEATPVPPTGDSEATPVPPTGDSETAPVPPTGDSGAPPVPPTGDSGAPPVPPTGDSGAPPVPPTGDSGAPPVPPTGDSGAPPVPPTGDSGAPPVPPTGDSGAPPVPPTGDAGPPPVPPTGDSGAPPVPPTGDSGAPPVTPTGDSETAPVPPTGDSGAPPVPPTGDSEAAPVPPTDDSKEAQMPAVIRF
EXPERIMENT_SUMMARY: flow cytometry displacement assay; 3.0 ug antibody, 1 ug b-hBSSL
READOUT_KIND: percentage reduction of b-hBSSL binding to CD14+ monocytes (%)
Value expressed in %; do not type the unit.

Guide cases for percentage reduction of b-hBSSL binding to CD14+ monocytes, answers given:
# BINDER, RECORDED_NUMBER
records = [
    ("S-SL048-66 hIgG4 S228P (antibody, V domains shown, Tested as human IgG4 S228P) VH: QVQLVQSGAEVKKPGASVKVSCKASGYTFTSYNMHWVRQAPGQGLEWMGVINPGDGATSYNQKFKGRVTMTRDTSTSTVYMELSSLRSEDTAVYYCARDYYGSSPLGYWGQGTLVTVSS VL: DIQMTQSPSSLSASVGDRVTITCSASQSISYMNWYQQKPGKAPKLLIYDASSLASGVPSRFSGSGSGTDFTLTISSLQPEDFATYYCHQRSSTPTFGQGTKLEIK", 51),
    ("S-SL048-107 hIgG4 S228P (antibody, V domains shown, Tested as human IgG4 S228P) VH: QVQLVQSGAEVKKPGASVKVSCKASGYTFTSYNMHWVRQAPGQGLEWMGVINPGDGATSYNQKFQGRVTMTRDTSTSTVYMELSSLRSEDTAVYYCARDYYGSSPLGYWGQGTLVTVSS VL: DIQMTQSPSSLSASVGDRVTITCRASPSISYLNWYQQKPGKAPKLLIYATSSLPSGVPSRFSGSGSGTDFTLTISSLQPEDFATYYCQQRSSSPTFGQGTKLEIK", 49),
    ("S-SL048-10 hIgG4 S228P (antibody, V domains shown, Tested as human IgG4 S228P) VH: QVQLVQSGAEVKKPGASVKVSCKASGYTFTSYNMHWVRQAPGQGLEWIGVINPSDGYTSYAQKFQGRVTMTRDTSTSTVYMELSSLRSEDTAVYYCARDYYGSSPLGYWGQGTLVTVSS VL: DIQMTQSPSSLSASVGDRVTITCRASPSISYLNWYQQKPGKAPKLLIYATSRLPSGVPSRFSGSGSGTDFTLTISSLQPEDFATYYCQQRSSSPTFGQGTKLEIK", 42),
    ("S-SL048-131 hIgG4 S228P (antibody, V domains shown, Tested as human IgG4 S228P) VH: QVQLVQSGAEVKKPGASVKVSCKASGYTFTSYNMHWVRQAPGQGLEWIGVINPGDGATSYAQKFKGRVTMTRDTSTSTVYMELSSLRSEDTAVYYCARDYYGSSPLGYWGQGTLVTVSS VL: DIQMTQSPSSLSASVGDRVTITCRASPSISYLNWYQQKPGKAPKLLIYAASKLASGVPSRFSGSGSGTDFTLTISSLQPEDFATYYCHQRSSSPTFGQGTKLEIK", 58),
    ("S-SL048-14 hIgG4 S228P (antibody, V domains shown, Tested as human IgG4 S228P) VH: QVQLVQSGAEVKKPGASVKVSCKASGYTFTSYNMHWVRQAPGQGLEWMGVINPGDGATSYAQKFKGRVTMTRDTSTSTVYMELSSLRSEDTAVYYCARDYYGSSPLGYWGQGTLVTVSS VL: DIQMTQSPSSLSASVGDRVTITCRASPSISYLNWYQQKPGKAPKLLIYATSRLPSGVPSRFSGSGSGTDFTLTISSLQPEDFATYYCQQRSSSPTFGQGTKLEIK", 56),
    ("S-SL048-106 hIgG4 S228P (antibody, V domains shown, also called mAb106) VH: QVQLVQSGAEVKKPGASVKVSCKASGYTFTSYNMHWVRQAPGQGLEWIGVIYPGDGSTSYNQKFQGRVTMTRDTSTSTVYMELSSLRSEDTAVYYCARDYYGSSPLGYWGQGTLVTVSS VL: DIQMTQSPSSLSASVGDRVTITCSASSSISYMNWYQQKPGKAPKLLIYATSKLPSGVPSRFSGSGSGTDFTLTISSLQPEDFATYYCHQRSSTPTFGQGTKLEIKR", 61),
    ("S-SL048-125 hIgG4 S228P (antibody, V domains shown, Tested as human IgG4 S228P) VH: QVQLVQSGAEVKKPGASVKVSCKASGYTFTSYNMHWVRQAPGQGLEWIGVINPGDGATSYAQKFQGRVTMTRDTSTSTVYMELSSLRSEDTAVYYCARDYYGSSPLGYWGQGTLVTVSS VL: DIQMTQSPSSLSASVGDRVTITCRASSSISYLHWYQQKPGKAPKLLIYAASRLPSGVPSRFSGSGSGTDFTLTISSLQPEDFATYYCHQRSSYPTFGQGTKLEIK", 33),
    ("S-SL048-48 hIgG4 S228P (antibody, V domains shown, Tested as human IgG4 S228P) VH: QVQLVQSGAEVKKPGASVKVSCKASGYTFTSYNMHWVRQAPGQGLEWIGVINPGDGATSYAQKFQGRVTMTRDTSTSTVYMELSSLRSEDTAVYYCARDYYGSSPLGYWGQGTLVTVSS VL: DIQMTQSPSSLSASVGDRVTITCRASPSISYMNWYQQKPGKAPKLLIYATSRLQSGVPSRFSGSGSGTDFTLTISSLQPEDFATYYCHQRSSSPTFGQGTKLEIK", 68),
]

Ask: What does the record list as percentage reduction of b-hBSSL binding to CD14+ monocytes for S-SL048-43 hIgG4 S228P (antibody, V domains shown, Tested as human IgG4 S228P) VH: QVQLVQSGAEVKKPGASVKVSCKASGYTFTSYNMHWVRQAPGQGLEWMGVINPGDGATSYTQKFQGRVTMTRDTSTSTVYMELSSLRSEDTAVYYCARDYYGSSPLGYWGQGTLVTVSS VL: DIQMTQSPSSLSASVGDRVTITCRASPSISYMNWYQQKPGKAPKLLIYAASSLPSGVPSRFSGSGSGTDFTLTISSLQPEDFATYYCQQRSSSPTFGQGTKLEIK ?
Reply: 55

Ask: Using the record for S-SL048-38 hIgG4 S228P (antibody, V domains shown, Tested as human IgG4 S228P) VH: QVQLVQSGAEVKKPGASVKVSCKASGYTFTSYNMHWVRQAPGQGLEWMGVINPGDGATSYAQKFQGRVTMTRDTSTSTVYMELSSLRSEDTAVYYCARDYYGSSPLGYWGQGTLVTVSS VL: DIQMTQSPSSLSASVGDRVTITCRASPSISYLNWYQQKPGKAPKLLIYATSSLASGVPSRFSGSGSGTDFTLTISSLQPEDFATYYCQQRSSSPTFGQGTKLEIK , report its percentage reduction of b-hBSSL binding to CD14+ monocytes.
Reply: 51
